- targetOrTestSystem: DDR2 (Homo sapiens, UniProt Q16832)
- Sequence (Q16832 22-855): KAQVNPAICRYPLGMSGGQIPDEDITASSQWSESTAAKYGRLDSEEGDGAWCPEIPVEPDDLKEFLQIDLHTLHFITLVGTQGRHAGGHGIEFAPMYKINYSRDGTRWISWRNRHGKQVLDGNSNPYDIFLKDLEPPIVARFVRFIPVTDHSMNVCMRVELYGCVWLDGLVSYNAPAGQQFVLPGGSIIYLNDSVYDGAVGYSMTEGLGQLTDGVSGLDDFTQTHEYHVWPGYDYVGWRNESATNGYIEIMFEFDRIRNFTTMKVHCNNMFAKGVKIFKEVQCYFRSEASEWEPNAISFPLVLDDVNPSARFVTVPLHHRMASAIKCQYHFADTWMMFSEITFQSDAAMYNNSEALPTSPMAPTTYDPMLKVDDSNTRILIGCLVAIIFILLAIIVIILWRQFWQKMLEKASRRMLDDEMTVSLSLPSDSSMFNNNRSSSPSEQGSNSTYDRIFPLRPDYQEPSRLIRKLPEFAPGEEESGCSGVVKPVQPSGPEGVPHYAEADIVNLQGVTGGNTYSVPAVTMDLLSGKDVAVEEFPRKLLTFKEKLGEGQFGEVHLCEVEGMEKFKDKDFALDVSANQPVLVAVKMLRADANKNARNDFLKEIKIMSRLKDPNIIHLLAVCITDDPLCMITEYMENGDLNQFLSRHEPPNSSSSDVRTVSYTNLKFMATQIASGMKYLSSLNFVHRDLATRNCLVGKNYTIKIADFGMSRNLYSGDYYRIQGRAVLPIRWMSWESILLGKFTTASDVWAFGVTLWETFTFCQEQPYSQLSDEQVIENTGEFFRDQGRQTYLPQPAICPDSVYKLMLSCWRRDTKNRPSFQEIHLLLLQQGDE
- protocolDescription: DDR2 cell based assay (phospho-ELISA in HEK293T-DDR2 recombinant cells)
- conditionDetails: bovine Type II Collagen 50 μg/ml
pIC50: −log10 of the molar value.
measurementLabel: pIC50

Known results for molecules:
>>> result("O=C(Nc1cccc(C(F)(F)F)c1)c1csc2c1CCN(C(=O)c1cnc3ccccn13)C2")
"> 7.60"
>>> result("Cc1cn(-c2cc(NC(=O)c3csc4c3CCN(C(=O)c3cnc5ccccn35)[C@@H]4C)cc(C(F)(F)F)c2)cn1")
"> 7.60"
>>> result("O=C(Nc1cncc(C(F)(F)F)c1)c1csc2c1CCN(Cc1cnc3cnccn13)C2")
"> 7.60"
>>> result("CC1c2scc(C(=O)Nc3cccc(C(F)(F)F)c3)c2CCN1Cc1cnc2[nH]ccc2c1 (single isomer, unassigned)")
"7.30 to 7.60"
>>> result("Cc1cn(-c2cc(NC(=O)c3csc4c3CCN(C(=O)c3cnc5ccccn35)C4C)cc(C(F)(F)F)c2)cn1 (stereo not drawn)")
"> 7.60"
>>> result("CN1CCN(c2ccc3ncc(C(=O)N4CCc5c(C(=O)Nc6cccc(C(F)(F)F)c6)csc5C4)n3c2)CC1")
"> 7.60"

State the measured pIC50 (DDR2 (Homo sapiens, UniProt Q16832)) of O=C(Nc1cc(OCCN2CCOCC2)cc(C(F)(F)F)c1)c1csc2c1CCN(C(=O)c1cnc3ccccn13)C2
7.30 to 7.60

State the measured pIC50 (DDR2 (Homo sapiens, UniProt Q16832)) of Cn1nc(C(C)(C)C)cc1NC(=O)c1csc2c1CCN(Cc1cnc3[nH]ccc3c1)C2
7.30 to 7.60

State the measured pIC50 (DDR2 (Homo sapiens, UniProt Q16832)) of O=C(Nc1cccc(C(F)(F)F)c1)c1csc2c1CCN(Cc1cnc3[nH]ccc3c1)C2
7.30 to 7.60

State the measured pIC50 (DDR2 (Homo sapiens, UniProt Q16832)) of C[C@@H]1c2scc(C(=O)Nc3cccc(C(F)(F)F)c3)c2CCN1C(=O)c1cnc2ccccn12
> 7.60
